target: HLA-B*39:01; experiment: IEDB peptide-MHC binding, purified MHC/competitive/fluorescence; filed as Kd, often an IC50 or EC50 that approximates it; bounds were set here for any values at or beyond the usual limits of such assays; conditions: source organism: Orthohantavirus tulaense
pKd: −log10 of the molar value.
measured_attribute: pKd

Recorded pKd of MSRKLHRYI , please.
≤ 4.70

----------
target: HLA-A*01:01; experiment: IEDB peptide-MHC binding, purified MHC/direct/fluorescence; filed as Kd, often an IC50 or EC50 that approximates it; bounds were set here for any values at or beyond the usual limits of such assays; details: source organism: Mammarenavirus lassaense
measured_attribute: Kd

What does the data say about its Kd? Entry: NQFGTMPSL
≥ 20 µM

Data origin: the Immune Epitope Database (IEDB)
